B1: CPEB3 Ribozyme (parent)
chain: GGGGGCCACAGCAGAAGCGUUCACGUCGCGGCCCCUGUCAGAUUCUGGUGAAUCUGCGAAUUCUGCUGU

Variants of: B1
experimental_details: self-cleavage, relative activity (ratio to wild type); higher = more cleavage; co-transcriptional
# label = bin(measured self-cleavage), where bins are low band: < 0.2; middle band: ≥ 0.2 and < 0.3; high band: ≥ 0.3

// below: answered variants
- chain_sequence: "GGGGGGCACAGCAGAAGCGUUCACGUCGCGGCCCCUGUCAGAUUCUGGUGAAUCUGCGAAUUCGGCUGU [C6G U64G]"
  qualitative_label: "middle band"
- chain_sequence: "GAGGGCCCCAGCAGAAGCGUUCACGUCGCGGCCCCUGUCAGAUUCUGGUGAAUCUGCGAAUUCUGCUGU [G2A A8C]"
  qualitative_label: "low band"
- chain_sequence: "CGGGGCCACAGCAGAAGCGUUCACGUCGCGGCCCCUGUCAGAUUCUGGUGAAUCUGCGAAUCCUGCUGU [G1C U62C]"
  qualitative_label: "middle band"

Tag the class for GGGGGCCACAGCAGAAUCGUUCACGUCGCGGCCCCUGUCAGAUUCUGGUGAAUCUGCAAAUUCUGCUGU [G17U G58A]
high band

Repeat with GGGGGCCACAGCAGAAGCCUUCACGUCGCGGCCCUUGUCAGAUUCUGGUGAAUCUGCGAAUUCUGCUGU [G19C C35U]
low band

Entry to check: GUGGGCCACAGCAGAAGCGAUCACGUCGCGGCCCCUGUCAGAUUCUGGUGAAUCUGCGAAUUCUGCUGU [G2U U20A]
low band

And the next one, GGGGGCCACAUCAGAAGCGUUCACGUCGCGGCCCCUGUCAGAUUCUGGUGAAUCUGCGAAUUCUGCUAU [G11U G68A] ?
high band

And then GGGGGCCACAGCAGAAGCGUUCACGUCGCGGCCCCUGUUAGAUUCUGGUGAAUCUGCGAAUUCUGGUGU [C39U C66G] , what is it?
high band

Would you mind doing GGUGGCCACAGCAGAAGCGUUCACGUCGCGGCCCCUGUCAGAUUCUGGUGGAUCUGCGAAUUCUGCUGU [G3U A51G] as well?
low band

Repeat with GGGGGCCACAGAAGAAGCGUGCACGUCGCGGCCCCUGUCAGAUUCUGGUGAAUCUGCGAAUUCUGCUGU [C12A U21G]
low band

Next up: GGGGGCCACAGCAUAAGCGUUCACGUCGCGGCCCCUGUCAGAUUCUGGUGAAUCUGCGAAUUCUGCUGC [G14U U69C]
high band

Also, GGGGGCCACAGCAGAAGCGUUCACGUCGCGGCCCCUGUCAGCUUCUGGUGAAUCUGCGAAGUCUGCUGU [A42C U61G] please.
high band

Also need GGGGACCACAGCAGAAGCGUUAACGUCGCGGCCCCUGUCAGAUUCUGGUGAAUCUGCGAAUUCUGCUGU [G5A C22A] , thanks.
low band

Quick one: GGGGGCCACAGCAGAAGCGUUCACGUCGCCGCCCCUGUCAGAUUCUGGUGAAUCUGCGAACUCUGCUGU [G30C U61C]
middle band
